Test readout: melting point

Smiles record: Cc1cc(N=Nc2ccccn2)cc(C)c1-c1ccc(-c2c(C)cc(N=Nc3ccccn3)cc2C)o1
melting point: 206 to 207 °C
//
Smiles record: Cc1cccc(C(C)(C)C)c1NC(=O)NCC1(c2ccccc2)CCCCC1
melting point: 196 to 197 °C
//
Smiles record: Cc1nn(CCc2ccccc2)cc1C(=O)Nc1ccc(N2CCC(N3CCOCC3)CC2)c(C#N)c1
melting point: 188 °C

Given the entry Nc1cc(Cl)cc(N)c1[N+](=O)[O-] , report its measured melting point.
202 °C

---

Test readout: melting point

Recorded results for 5 compounds are shown here.
Compound: COC(=O)c1ccc(N2CCOCC2)cc1
Test readout: melting point
Value: 152 to 154 °C
//
Compound: CCCC(=O)Nc1cc(CNc2ccccc2C(=O)Nc2cc3ccccc3cn2)ccn1
Test readout: melting point
Value: 173 °C
//
Compound: CCCCN(CC(=O)N1c2ccccc2N(CC)C(=O)c2cnc(-c3ccccc3)nc21)C(C)(C)C
Test readout: melting point
Value: 70 to 72 °C
//
Compound: O=C(O)c1cc(Oc2ccc([N+](=O)[O-])cc2)cc(Oc2ccc([N+](=O)[O-])cc2)c1
Test readout: melting point
Value: 230 to 232 °C
//
Compound: COC(=O)c1nn(Cc2cccc(O)c2)c2c1CCc1cc(OCc3cncnc3)ccc1-2
Test readout: melting point
Value: 218 to 222 °C

Given the entry CC(CS(=O)(=O)c1ccccc1)C1CCC2C3CC=C4CC(O)CCC4(C)C3CCC12C (stereo not given) , report its measured melting point.
158 to 161 °C

Quick one: CCCc1cc(OC)ccc1-c1noc2cc(OC)ccc12
71 to 72 °C

Quick one: CC=CCn1c(C)c(C)c2cnnc(NCc3ccc(F)cc3)c21
135 to 138 °C

Quick one: COc1cc(C=C2C(=O)NC(=O)N2C)ccc1O
197 to 198 °C

Quick one: COc1ccc([C@H](C)NC(=O)c2cccnc2Oc2ccc(F)cc2)cc1
97 to 99 °C

---

Test readout: melting point

Given the entry COc1ccc2cc(Nc3ccc(OCc4ccccc4)cc3)ccc2c1 , report its measured melting point.
155 to 157 °C

Quick one: O=Cc1ccc(N(c2ccccc2)c2ccc3c4c(cccc24)CC3)cc1
138 to 141 °C

Quick one: Cc1cc2c(cc1C(F)(F)F)N(C(=O)Nc1ccc(OCc3ccccn3)nc1)CC2
219 to 220 °C

Quick one: O=C1CCC(N2Cc3c(OCc4ccc(CN5CCC(c6cccc(F)c6)CC5)cc4)cccc3C2=O)C(=O)N1 (centres undefined)
200 to 202 °C

Quick one: CCOC(=O)C(C)Oc1ncn(-c2cccc(Cl)c2)n1 (centres undefined)
70 to 72 °C

Quick one: COc1ccc(C(=O)CCC2CCN(C(C)=O)CC2)cc1NC(=O)C(F)(F)F
77 to 79 °C

Quick one: O=C1CNc2cccc(Oc3cc(-c4ccc(C(F)(F)F)cc4)ncn3)c2N1
305 °C

---

Test readout: melting point

Compound: CC(=O)Nc1c(C(=O)c2ccc(F)cc2)[nH]c2cc(Cl)ccc12
melting point: 205 to 207 °C
//
Compound: Clc1ccc(C2COCCS2)cc1Cl (stereo not given)
melting point: 65 to 68 °C
//
Compound: O=C(Nc1ccc(C(F)(F)F)cc1)Nc1cccc(Oc2ccccc2)c1
melting point: 178 to 181 °C
//
Compound: CC(=O)SCC(CCc1cccc(C)c1)C(=O)O (stereo not given)
melting point: 52 to 54 °C
//
Compound: CCSc1nc2c(cc1F)c(=O)c(C(=O)O)cn2C1CC1
melting point: 242 to 244 °C
//
Compound: NC1CCCC(NC(=O)c2ccc(-c3[nH]nc4c3C(=O)c3c(NC(=O)NN5CCOCC5)cccc3-4)s2)C1 (stereo not given)
melting point: > 300 °C
//
Compound: CC(C)COc1ccc(C=CC(=O)O)cc1
melting point: 161 to 164 °C
//
Compound: COC(=O)CCc1nc(-c2cccc(NC(=O)OC(C)(C)C)c2)no1
melting point: 90 to 91 °C
//
Compound: O=C(O)[C@@H]1C[C@H]1Sc1nc2ccccc2cc1-c1ccccc1 (relative stereo)
melting point: 168 to 170 °C

Please turn your attention to the following entry.
Given the entry CN1C2CCC1CC(n1cc(-c3ccc(Oc4ccccc4)cc3)c3c(N)ncnc31)C2 (stereo not given) , report its measured melting point.
238 to 250 °C

---

Test readout: melting point

Compound: CS(=O)(=O)c1ccc(-c2cnn(CC(=O)c3ccc(C(F)(F)F)cc3)c(=O)c2-c2ccc(F)cc2)cc1
Value: 205 to 206 °C

Given the entry COCCN1C(=O)CCC(C)(C)c2ccc(Nc3ncc(Cl)c(Nc4c(F)cccc4OCC#N)n3)cc21 , report its measured melting point.
235 to 238 °C

Quick one: CC(C)(C)c1cc(C(=O)NCC(=O)O)ccc1OCc1ccccc1
172 to 174 °C

Quick one: CN(Cc1cc2c3c(c1)c(=O)c(C(=O)NCc1ccc(F)cc1)cn3CC(=O)N2C)C[C@@H](O)c1cnccn1
108 to 110 °C

Quick one: CS(=O)(=O)c1ccc(C(=O)C2C(=O)CCCC2=O)c(Cl)c1C1=NOC2OCCC12 (centres undefined)
119 °C

---

Test readout: melting point (°C)

I = CCCOC(=O)C1=C(N)NC(C)=C(C#N)C1c1cccc2ncc(-c3ccccc3)cc12 (stereo not given)
II = OC1CSC(Oc2cccc(-c3ccco3)c2)C(O)C1O (stereo not given)
Of I and II , which shows the smaller melting point value? Mark your selection by writing its label.
II

---

# Lookup of reported melting point keyed by entry

Recorded results for 3 compounds are shown here.
Compound: COC(=O)COc1ccc(C(=O)NC(=O)Nc2ccc(C(N)=S)cc2)cc1
melting point: 215 to 218 °C

Compound: CCOc1cc(C2=NNC(=O)[C@H]3CC=CC[C@@H]23)ccc1OC (relative stereo)
melting point: 163 to 166 °C

Compound: COc1ccc2c(c1)OC1(O)c3ccccc3C(=O)C21O (stereo unspecified)
melting point: 98 to 100 °C

Given the entry COc1nc(N)c2c(OC)c(OC)cc(Cl)c2n1 , report its measured melting point.
203 to 204 °C

Quick one: O=C(O)Cc1nsc(NC(=O)c2ccccc2)n1
173 to 175 °C

Quick one: CCN1CCC(O)(c2cccc(F)c2F)C1 (stereo unspecified)
119 to 120 °C

---

# Lookup of reported melting point keyed by entry

Recorded results for 5 molecules are shown here.
Molecule: CCOC(=O)C(=O)Nc1cc(NC(=O)NC)ccc1O
melting point: 235 to 236 °C

Molecule: O=C(NC12CC3CC(CC1C3)C2)c1ccncc1C(c1ccc(O)cc1)c1ccc(O)cc1
melting point: 218 to 220 °C

Molecule: COC(=O)c1c(SC(C)C)c2cc(OC)ccc2n1C
melting point: 93 to 95 °C

Molecule: Cn1nc(-c2c(F)cc(Cl)c(=S)n2Cc2ccccc2)c(Cl)c1OC(F)F
melting point: 135 to 138 °C

Molecule: CC(C)n1c(S)nc(-c2ccc(F)cc2)c1-c1ccc(F)cc1
melting point: 308 to 312 °C

Given the entry C=C1N(C2CCCCC2)C(=O)OC12CCN(CCC=C(c1ccc(F)cc1)c1ccc(F)cc1)CC2 , report its measured melting point.
145 to 146 °C

---

# Lookup of reported melting point keyed by entry

Recorded results for 3 compounds are shown here.
Compound: CN1C(=O)CC[C@]2(C)c3ccc(Sc4ccc5cc([N+](=O)[O-])ccc5n4)cc3CC[C@@H]12
Value: 195 to 196 °C
--
Compound: COC(=O)CCCc1cc2nc(C(F)(F)F)ccc2n1S(=O)(=O)c1ccc2c(c1)OCCN2C
Value: 118 °C
--
Compound: O=C(O)C1(Cc2ccccc2)CCN(Cc2ccccc2)C1 (stereo not given)
Value: 209 to 210 °C

Given the entry Cc1ccc2cccc(OCc3c(C)ccc([N+](=O)[O-])c3C)c2n1 , report its measured melting point.
150 to 152 °C

Quick one: O=C(O)CCC(=NO)c1ccc2c3c(oc2c1)CCCC3
148 to 150 °C

Quick one: O=C(OCC=Cc1ccccc1)c1cccc2nnsc12
70 to 72 °C

Quick one: CC[C@H](C)CCCCCOc1ccc(C(=O)Oc2ccc(O)cc2)cc1
75 °C

---

# Lookup of reported melting point keyed by entry

Molecule: Cc1sc(-c2nccs2)c2c1C(=O)CC(C)(C)C2
melting point: 98 to 100 °C
//
Molecule: OCCCCCCOc1ccccc1
melting point: 69 to 74 °C
//
Molecule: CC1(C(F)(F)F)CCCN1C(=O)c1c(F)cccc1F (configuration not stated)
melting point: 119 to 120 °C

Given the entry Cc1c(O)cccc1Br , report its measured melting point.
89 °C

Quick one: C=CCSc1nc(=O)[nH]cc1F
150 to 152 °C

Quick one: C#CCNC(=O)Oc1cc(-n2c(=O)cc(C(F)(F)F)n(C)c2=O)c(F)cc1Cl
144 to 146 °C
